Test system: LG0567-F671-PDC complex spheroids viability
protocol.details: Anticancer human tumor LG0567-F671-PDC patient-derived lung adenocarcinoma cell line growth inhibition [RAS]; active = viability on the fitted dose curve at most 10% of control; inactive = the rest
test.settings: second compound 0.03 µM; first compound 0.00316 µM
# output must be one of YES = active, NO = inactive

What classification did C=CC(=O)Nc1cc(Nc2nccc(-c3cn(C)c4ccccc34)n2)c(OC)cc1N(C)CCN(C)C + CCn1c(-c2cccnc2C(C)OC)c2c3cc(ccc31)N1CCOC(CC(NC(=O)C(C(C)C)N(C)C(=O)C3(F)CCN(C(=O)C#CC(C)(C)N(C)C)CC3)C(=O)N3CCCC(N3)C(=O)OCC(C)(C)C2)C1 end up with in this test?
NO

---

Item-by-item account of viability, T/C
System: LG0567-F671-PDC complex spheroids viability
protocol.details: Anticancer human tumor LG0567-F671-PDC cell line growth inhibition [RAS];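 also: spheroids exposed to compound for seven days before readout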
test.settings: second compound 0.0949 µM; first compound 10 µM; active compounds read low
Your answer is read as %, so omit the unit and give the number.

// worked examples, viability, T/C included
Need viability, T/C, item CCC(CC)c1cc(NC2CCC(N)C2)n2nccc2n1 (centres undefined) + CCn1c(-c2cccnc2C(C)OC)c2c3cc(ccc31)N1CCOC(CC(NC(=O)C(C(C)C)N(C)C(=O)C3(F)CCN(C(=O)C#CC(C)(C)N(C)C)CC3)C(=O)N3CCCC(N3)C(=O)OCC(C)(C)C2)C1
1

What do we get for CC(C)NCC(C(=O)N1CCN(c2ncnc3c2C(C)CC3O)CC1)c1ccc(Cl)cc1 (centres undefined) + CCn1c(-c2cccnc2C(C)OC)c2c3cc(ccc31)N1CCOC(CC(NC(=O)C(C(C)C)N(C)C(=O)C3(F)CCN(C(=O)C#CC(C)(C)N(C)C)CC3)C(=O)N3CCCC(N3)C(=O)OCC(C)(C)C2)C1 ?
6.43

Now consider a different compound.
Need viability, T/C, item CCC(CC)c1cc(NC2CCC(N)C2)n2nccc2n1 (centres undefined) + CCn1c(-c2cc(N3CCN(C)CC3)cnc2C(C)OC)c2c3cc(ccc31)-c1csc(n1)CC(NC(=O)C1CC1C)C(=O)N1CCCC(N1)C(=O)OCC(C)(C)C2
0.11

---

Item-by-item account of viability, T/C
System: LG0567-F671-PDC complex spheroids viability
protocol.details: Anticancer human tumor LG0567-F671-PDC cell line growth inhibition [RAS];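 also: spheroids exposed to compound for seven days before readout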
test.settings: second compound 0.003 µM; first compound 1 µM; active compounds read low
Your answer is read as %, so omit the unit and give the number.

Need viability, T/C, item CC(C)NCC(C(=O)N1CCN(c2ncnc3c2C(C)CC3O)CC1)c1ccc(Cl)cc1 (stereo not drawn) + CCn1c(-c2cc(N3CCN(C)CC3)cnc2C(C)OC)c2c3cc(ccc31)-c1csc(n1)CC(NC(=O)C1CC1C)C(=O)N1CCCC(N1)C(=O)OCC(C)(C)C2
7.01

Continuing:
Need viability, T/C, item Cc1nc(N2CCC3(CC2)COC(C)C3N)c(CO)nc1Sc1ccnc(N)c1Cl (stereo not drawn) + CCn1c(-c2cccnc2C(C)OC)c2c3cc(ccc31)N1CCOC(CC(NC(=O)C(C(C)C)N(C)C(=O)C3(F)CCN(C(=O)C#CC(C)(C)N(C)C)CC3)C(=O)N3CCCC(N3)C(=O)OCC(C)(C)C2)C1
4.14

What do we get for O=C(c1ccc(F)c(F)c1Nc1ccc(I)cc1F)N1CC(O)([C@@H]2CCCCN2)C1 + CCn1c(-c2cc(N3CCN(C)CC3)cnc2C(C)OC)c2c3cc(ccc31)-c1csc(n1)CC(NC(=O)C1CC1C)C(=O)N1CCCC(N1)C(=O)OCC(C)(C)C2 ?
0.48

What do we get for CCN1CCN(Cc2ccc(Nc3ncc(F)c(-c4cc(F)c5nc(C)n(C(C)C)c5c4)n3)nc2)CC1 + CCn1c(-c2cc(N3CCN(C)CC3)cnc2C(C)OC)c2c3cc(ccc31)-c1csc(n1)CC(NC(=O)C1CC1C)C(=O)N1CCCC(N1)C(=O)OCC(C)(C)C2 ?
21.5

What do we get for CC1(O)CCCC1n1c(=O)c(C(F)F)cc2cnc(NC3CCN(S(C)(=O)=O)CC3)nc21 (stereo not drawn) + CCn1c(-c2cc(N3CCN(C)CC3)cnc2C(C)OC)c2c3cc(ccc31)-c1csc(n1)CC(NC(=O)C1CC1C)C(=O)N1CCCC(N1)C(=O)OCC(C)(C)C2 ?
17.6

What do we get for C=CC(=O)Nc1cc(Nc2nccc(-c3cn(C)c4ccccc34)n2)c(OC)cc1N(C)CCN(C)C + CCn1c(-c2cccnc2C(C)OC)c2c3cc(ccc31)N1CCOC(CC(NC(=O)C(C(C)C)N(C)C(=O)C3(F)CCN(C(=O)C#CC(C)(C)N(C)C)CC3)C(=O)N3CCCC(N3)C(=O)OCC(C)(C)C2)C1 ?
2.75

What do we get for Nc1ccn(C2OC(CO)C(O)C2(F)F)c(=O)n1 (stereo not drawn) + CCn1c(-c2cc(N3CCN(C)CC3)cnc2C(C)OC)c2c3cc(ccc31)-c1csc(n1)CC(NC(=O)C1CC1C)C(=O)N1CCCC(N1)C(=O)OCC(C)(C)C2 ?
12.4

What do we get for C=CC(=O)N1CCN(c2nc(OCC3CCCN3C)nc3c(F)c(-c4nc(N)cc(C)c4C(F)(F)F)c(Cl)cc23)C(C)C1 (stereo not drawn) + CCn1c(-c2cccnc2C(C)OC)c2c3cc(ccc31)N1CCOC(CC(NC(=O)C(C(C)C)N(C)C(=O)C3(F)CCN(C(=O)C#CC(C)(C)N(C)C)CC3)C(=O)N3CCCC(N3)C(=O)OCC(C)(C)C2)C1 ?
15.4
